Test: Equilibrium solubility, Uniprep method, 24 h at 37 °C
Assay type: physicochemical
Details: 37 °C, thermodynamic from solid; Level II FaSSIF V1 (pH = 6.5), pHfinal 6.0; read-out: Solubility, mean (SD)
RECORDED_METRIC: solubility at 24 h (µg/mL)
Write down the numeric answer in µg/mL and omit the unit.

I have this molecule here, CC(C(=O)O)c1ccc(-c2ccccc2)c(F)c1 (stereo not shown) , and I need its recorded solubility at 24 h.
1950

###

Experiment: Equilibrium solubility, Uniprep method, 24 h at 37 °C
Format: physicochemical
Details: aqueous buffer (FaSSGF Level I), pH 1.6; minimum experimentally measured value; read-out: S0 (intrinsic solubility)
RECORDED_METRIC: solubility at 24 h (µg/mL)
API: value field is a number in µg/mL; no unit string.

Requested read-out: solubility at 24 h. Entry: CC(C(=O)O)c1ccc(-c2ccccc2)c(F)c1 (stereo not shown)
18
